- Test system: Escherichia coli
- assay-protocol: In vitro antibacterial activity against CMC-84-50 strain of Escherichia coli
- Assay type: functional
reported-property: MIC (µg/mL)
Numbers only here, please. The scale is µg/mL.

# compound, reported-property, readout-value
data = [
    ("C=CCOC(=O)CNN1CC(NC(=O)/C(=N/OC)c2csc(N)n2)C1=O (centres undefined)", "MIC", 4),
    ("C[C@H]1[C@H](NC(=O)/C(=N\\OC(C)(C)C(=O)O)c2csc(N)n2)C(=O)N1S(=O)(=O)O", "MIC", 0.06),
]

In the following, a different compound is considered.
// query Fill in the blank: the reported MIC of CO/N=C(/C(=O)NC1CN(/N=C/C(=O)O)C1=O)c1csc(N)n1 (centres undefined) is ____.
// result 2

* * *

Item-by-item account of MIC
- Tested on: Klebsiella pneumoniae
- assay-protocol: In vitro antibacterial activity against MOR-84-24 strain of Klebsiella pneumoniae
- Type: functional
Numbers only here, please. The scale is µg/mL.

Example entries begin here.
# compound, MIC [µg/mL]
records = [
    ("C[C@H]1[C@H](NC(=O)/C(=N\\OC(C)(C)C(=O)O)c2csc(N)n2)C(=O)N1S(=O)(=O)O", 0.06),
    ("C=CCOC(=O)CNN1CC(NC(=O)/C(=N/OC)c2csc(N)n2)C1=O (centres undefined)", 16),
]

In the following, a different compound is considered.
// query Fill in the blank: the reported MIC of CO/N=C(/C(=O)NC1CN(/N=C/C(=O)O)C1=O)c1csc(N)n1 (centres undefined) is ____.
// result 8
